# Test system: cancer stem cells
# Protocol: Survival rate of cancer stem cells after test compound is added (flow cytometry, Annexin V-FITC/PI, clinical specimen)
# Type: cell-based, patient
# Assay Setup: Homo sapiens, 18 h, Ovarian cancer; 20.0 μM
Record form. Attribute: viability at 20 µM. Fill in for each entry.
Just the number in %, nothing appended.

For the record C=C1CC[C@H]2C(=C)CC[C@H]3C(=C)C(=O)O[C@@H]3[C@@H]12 , what value of viability at 20 µM is listed for cancer stem cells?
55

Could you share what viability at 20 µM was measured for CN(C)C[C@@H]1C(=O)O[C@H]2[C@H]1CCC1(CC1)[C@@H]1CCC3(CC3)[C@H]21 , tested on cancer stem cells?
78

Kindly state the measured viability at 20 µM obtained for C=C1C(=O)O[C@@H]2[C@@H]3[C@@H](CC[C@@]3(C)O)[C@](C)(O)CC[C@@H]12 with cancer stem cells.
76

What value of viability at 20 µM on cancer stem cells does [2H][C@@]1(CN(C)C)C(=O)O[C@@H]2[C@@H]3[C@@H](CCC34CC4)C3(CC[C@H]21)CC3 have?
72

Form field - read-out: viability at 20 µM; system: cancer stem cells; submitted item: CC1=C2CC[C@@](C)(O)[C@@H]2[C@H]2OC(=O)[C@@H](CN(C)C)[C@@H]2CC1
75

For the record C=C1C(=O)O[C@@H]2[C@H]3C(C)=CC[C@@]34O[C@@]4(C)CC[C@@H]12 , what value of viability at 20 µM is listed for cancer stem cells?
55

Provide the documented viability at 20 µM with cancer stem cells as the system for C=C1C(=O)O[C@H]2[C@H]1CC[C@]1(C)O[C@@]13CC[C@@](C)(O)[C@H]23
45
